Molecular target: recombinant HIV-1 RT enzyme (p66/51 dimer) (Human immunodeficiency virus type 1 group M subtype B)
Construct: recombinant HIV-1 RT enzyme (p66/51 dimer)
Test: RT inhibition assay, incorporation of [32P]GTP into poly(rC)/oligo(dG)
Assay type: biochemical
Please provide measured IC50 for the entries that follow.
Numbers only, in nM.

Examples with their reported IC50 follow.
compound	obs value
COC(=O)CCC/C=C(\c1cc(F)cc(C(F)(F)F)c1)c1cc(C)c2onc(OC)c2c1 [Compound 19]	900
COC(=O)CCC/C=C(/c1cc(C)c(OC)c(C(=O)OC)c1)c1cc(C)c2oc(=O)n(C)c2c1 [Compound 60]	160
COC(=O)CCC/C=C(\c1cccc(C#N)c1)c1cc(Cl)c(OC)c(C(=O)OC)c1 [Compound 17]	750

Query string: Record request: IC50 value, item COC(=O)c1cc(/C(=C\CCN2CCOC2=O)c2ccc(OC)c(OC)c2)cc(C)c1OC [Compound 3]
Result string: 1000

* * *

Assay: Cytotoxicity in mock-infected CEM-SS cells
Assay type: cell-based
Details: human, uninfected (mock-infected) CEM-SS cells
quantity: CC50

COC(=O)CCC/C=C(\c1cc(F)cc(C(F)(F)F)c1)c1cc(C)c2on(C)c(=O)c2c1 16.8 µM
COC(=O)CCC/C=C(\c1cccc(C#N)c1)c1cc(Cl)ccc1OC 16.3 µM
COC(=O)CCC/C=C(\c1cc(C)c(OC)c(C(=O)OC)c1)c1cc(Cl)ccc1OC 8.3 µM

Batch request: CC50 for each of the following compounds.
1. COC(=O)CCC/C=C(\c1cc(F)cc(C(F)(F)F)c1)c1cc(C)c2oc(=O)n(C)c2c1
2. COC(=O)CCC/C=C(/c1cc(C)c(OC)c(C(=O)OC)c1)c1cc(C)c2oc(=O)n(C)c2c1
3. COc1ccc(/C(=C\CCN2CCOC2=O)c2cc(F)ccc2C(F)(F)F)cc1OC
4. COc1ccc(/C(=C\CCN2CCOC2=O)c2cc(F)cc(C(F)(F)F)c2)cc1OC
5. COC(=O)CCC/C=C(\c1cc(F)cc(C(F)(F)F)c1)c1cc(C)c(OC)c(C(=O)OC)c1

Result string:
15 µM
9.39 µM
26.7 µM
14.5 µM
> 5 µM

* * *

Test system: HIV-1RF
Assay: MTS cytoprotection assay, HIV-1RF infection in CEM-SS cells
Assay type: cell-based
Details: Human immunodeficiency virus 1; HIV-1RF in CEM-SS cells; read-out: EC50 HIV-1RF (inhibition of cytopathicity)
quantity: pEC50
Give bare numbers, as −log10 of the molar value.

COC(=O)CCCC=C(c1cc(C)c(OC)c(C(=O)OC)c1)c1cc(C)c(OC)c(C(=O)OC)c1 6.60

# input for lookup
Query string: Fill in the blank: the reported pEC50 of `COC(=O)CCC/C=C(/c1cc(C)c2on(C)c(=O)c2c1)c1cc(C)c2oc(=O)n(C)c2c1` is ____.
Result string: 5.75

* * *

Test system: HIV-1RF
Assay: MTS cytoprotection assay, HIV-1RF infection in CEM-SS cells
Assay type: cell-based
Conditions: Human immunodeficiency virus 1; HIV-1RF in CEM-SS cells; read-out: EC50 HIV-1RF (inhibition of cytopathicity)
quantity: EC50 (µM)
Give bare numbers, in µM.

// known answers, use as guide
COC(=O)c1cc(/C(=C\CCN2CCOC2=O)c2cc(F)cc(C(F)(F)F)c2)cc(C)c1OC 8.3
COC(=O)CCC/C=C(\c1cccc(C#N)c1)c1cc(Cl)c(OC)c(C(=O)OC)c1 7.1
COC(=O)CCC/C=C(/c1cc(C)c(OC)c(C(=O)OC)c1)c1cc(C)c2oc(=O)n(C)c2c1 0.87
COC(=O)CCC/C=C(/c1ccc(OC)c(C(=O)OC)c1)c1cc(C)c2oc(=O)n(C)c2c1 3.08

Working through the 2 compounds below one at a time, give EC50 for each.
1. COC(=O)CCC/C=C(/c1cc(Cl)c(OC)c(C(=O)OC)c1)c1cc(C)c2oc(=O)n(C)c2c1
2. COC(=O)CCCC=C(c1cc(C)c2oc(=O)n(C)c2c1)c1cc(C)c2oc(=O)n(C)c2c1

Result string:
1. 0.53
2. 0.62

* * *

System: HIV-1RF
Assay: MTS cytoprotection assay, HIV-1RF infection in CEM-SS cells
Type: cell-based
Details: Human immunodeficiency virus 1; HIV-1RF in CEM-SS cells; read-out: EC50 HIV-1RF (inhibition of cytopathicity)
Would you mind telling me the reported EC50 of each entry?

A selection of reference data follows.
COC(=O)CCC/C=C(/c1cc(F)cc(C(F)(F)F)c1)c1cc(C)c(OC)c(C(=O)OC)c1 7.3 µM
COC(=O)CCC/C=C(\c1cccc(C#N)c1)c1cc(C)c2onc(OC)c2c1 > 100 µM
COc1ccc(/C(=C\CCN2CCOC2=O)c2cc(F)ccc2C(F)(F)F)cc1OC > 100 µM

Below: the item to evaluate.
Query string: Query: EC50; subject: `COC(=O)CCC/C=C(/c1cc(C)c(OC)c(C(=O)OC)c1)c1cc(Cl)ccc1OC`
Result string: > 100 µM

* * *

Give measured Rat Plasma tp1/2 (min ± SD) for each item. Keep answers brief.
Experiment: In vitro hydrolytic stability study in rat plasma
Format: in vitro ADME
Conditions: rat plasma in vitro, half-life
Please report the result as a number followed by the unit.

Worked examples, 5 molecules total:
molecule	Rat Plasma tp1/2 (min ± SD)
COC(=O)c1cc(/C(=C\CCN2CCOC2=O)c2ccc(OC)c(OC)c2)cc(C)c1OC [Compound 3]	5.76 ± 0.68 min
COC(=O)CCC/C=C(/c1ccc(OC)c(C(=O)OC)c1)c1cc(C)c2oc(=O)n(C)c2c1 [Compound 62]	0.34 ± 0.15 min
COC(=O)CCC/C=C(/c1cc(Cl)c(OC)c(C(=O)OC)c1)c1cc(Cl)ccc1OC [Compound 10]	0.77 ± 0.08 min
COC(=O)CCC/C=C(\c1cc(F)cc(C(F)(F)F)c1)c1cc(C)c2oc(=O)n(C)c2c1 [Compound 63]	3.06 ± 0.32 min
COC(=O)CCC/C=C(\c1cc(C)c(OC)c(C(=O)OC)c1)c1cc(Cl)ccc1OC [Compound 14]	0.49 ± 0.02 min

Provide each entry's Rat Plasma tp1/2 (min ± SD) from the list below.
1. COC(=O)CCCC=C(c1cc(C)c2oc(=O)n(C)c2c1)c1cc(C)c2oc(=O)n(C)c2c1 [Compound 66]
2. COC(=O)CCC/C=C(\c1cccc(C#N)c1)c1cc(C)c2onc(OC)c2c1 [Compound 20]
3. COC(=O)CCCC=C(c1cc(C)c(OC)c(C(=O)OC)c1)c1cc(C)c(OC)c(C(=O)OC)c1 [Compound 1]
4. COC(=O)CCC/C=C(/c1cc(Cl)c(OC)c(C(=O)OC)c1)c1cc(C)c2oc(=O)n(C)c2c1 [Compound 61]
5. COC(=O)CCC/C=C(\c1cccc(C#N)c1)c1cc(Cl)ccc1OC [Compound 18]

Result string:
0.59 ± 0.01 min
1.16 ± 0.08 min
0.76 ± 0.04 min
0.19 ± 0.01 min
0.42 ± 0.02 min

* * *

Target: recombinant HIV-1 RT enzyme (p66/51 dimer) (Human immunodeficiency virus type 1 group M subtype B)
Construct: recombinant HIV-1 RT enzyme (p66/51 dimer)
Experiment: RT inhibition assay, incorporation of [32P]GTP into poly(rC)/oligo(dG)
Format: biochemical
Conditions: poly(rC)•oligo(dG) as the template primer; read-out: IC50 (inhibitory activity vs HIV-1 reverse transcriptase)
quantity: IC50 (nM)
Answers are plain numbers, in nM.

Query string: Please give the measured IC50 for this compound: COC(=O)CCCC=C(c1cc(C)c(OC)c(C(=O)OC)c1)c1cc(C)c(OC)c(C(=O)OC)c1 [Compound 1]
Result string: 1000

* * *

Molecular target: recombinant HIV-1 RT enzyme (p66/51 dimer) (Human immunodeficiency virus type 1 group M subtype B, UniProt P04585)
Construct: recombinant HIV-1 RT enzyme (p66/51 dimer)
Experiment: RT inhibition assay, incorporation of [32P]GTP into poly(rC)/oligo(dG)
Assay type: biochemical
Assign pIC50 to each entry below.
Give bare numbers, as −log10 of the molar value.

COc1noc2c(C)cc(/C(=C\CCN3CCOC3=O)c3cc(C)c4oc(=O)n(C)c4c3)cc12 5.44

Hey, can you go through the list below and give me pIC50 for every item?
1. COC(=O)CCC/C=C(/c1cc(C)c2on(C)c(=O)c2c1)c1cc(C)c2oc(=O)n(C)c2c1
2. COC(=O)CCCC=C(c1cc(C)c2oc(=O)n(C)c2c1)c1cc(C)c2oc(=O)n(C)c2c1

Result string:
1. 4.31
2. 6.30

* * *

Biological target: recombinant HIV-1 RT enzyme (p66/51 dimer) (Human immunodeficiency virus type 1 group M subtype B, UniProt P04585)
Construct: recombinant HIV-1 RT enzyme (p66/51 dimer)
Assay: RT inhibition assay, incorporation of [32P]GTP into poly(rC)/oligo(dG)
Assay type: biochemical
quantity: pIC50
One number for each entry, as −log10 of the molar value.

Some compounds with known pIC50 results, for comparison:
COC(=O)c1cc(/C(=C/CCN2CCOC2=O)c2ccc(OC)c(OC)c2)cc(C)c1OC 6.05
COC(=O)CCC/C=C(/c1cc(C)c2on(C)c(=O)c2c1)c1cc(Cl)ccc1OC 5.09
COC(=O)CCC/C=C(/c1cc(C)c2onc(OC)c2c1)c1cc(C)c2oc(=O)n(C)c2c1 6.60
COc1ccc(/C(=C\CCN2CCOC2=O)c2cc(F)cc(C(F)(F)F)c2)cc1OC 4.01
COC(=O)c1cc(/C(=C\CCN2CCOC2=O)c2cc(F)cc(C(F)(F)F)c2)cc(C)c1OC 4.80
COC(=O)CCC/C=C(\c1cccc(C#N)c1)c1cc(Cl)ccc1OC 6.11
COC(=O)CCC/C=C(/c1cc(Cl)c(OC)c(C(=O)OC)c1)c1cc(C)c2oc(=O)n(C)c2c1 6.03
COC(=O)CCC/C=C(\c1cc(C)c(OC)c(C(=O)OC)c1)c1cc(C)c2oc(=O)n(C)c2c1 7.70

Provide the reported pIC50 of each entry below, same order.
1. COC(=O)CCC/C=C(/c1cc(F)cc(C(F)(F)F)c1)c1cc(C)c(OC)c(C(=O)OC)c1
2. COC(=O)CCC/C=C(/c1ccc(OC)c(C(=O)OC)c1)c1cc(C)c2oc(=O)n(C)c2c1
3. COC(=O)CCC/C=C(\c1cccc(C#N)c1)c1cc(C)c2onc(OC)c2c1

Result string:
[4.26, 6.00, 5.24]
